- protocol: Caspase-3/7 induction in CHO-K1 cells by small molecules, qHTS cell viability counter screen (AID 1346979); further: nearly all actives have a fitted effect of over 35% in size
- details: CellTiter-Fluor fluorescence, 17 h; series mostly up to 92.4 µM
Results filed as inconclusive are left out. Activity calls are given as the source filed them. The call rests on the fitted dose curve; in most records, active means well fitted cell-killing curve with a large enough effect in the repeat runs; inconclusive means weak or mixed curves, or effect the other way; inactive means no such curve, though single readings can be large or run the other way.
API: response.call in active, inactive

[Q] I would be grateful if you could indicate the recorded call for CNC1CCCN(c2c(F)cc3c(=O)c(C(=O)O)cn(C4CC4)c3c2OC)C1 (configuration not stated) .
[A] inactive

[Q] I would be grateful if you could indicate the recorded call for CC(CO)(CO)C(=O)O .
[A] inactive

[Q] I would be grateful if you could indicate the recorded call for CCC(=O)OCc1ccc(OC)cc1 .
[A] inactive

[Q] I would be grateful if you could indicate the recorded call for CS(=O)(=O)c1ccc([C@@H](C[C@H]2CCC(=O)C2)C(=O)Nc2cnccn2)cc1Cl .
[A] inactive

[Q] I would be grateful if you could indicate the recorded call for CC(=O)C(=O)CC(C)C .
[A] inactive

[Q] I would be grateful if you could indicate the recorded call for O=S(=O)(O)CO .
[A] inactive

[Q] I would be grateful if you could indicate the recorded call for Cc1c(C2(c3cc(Br)c(O)c(Br)c3C)OS(=O)(=O)c3ccccc32)cc(Br)c(O)c1Br .
[A] active

[Q] I would be grateful if you could indicate the recorded call for CC1CCc2nccnc21 (configuration not stated) .
[A] inactive

[Q] I would be grateful if you could indicate the recorded call for O=C1CC[C@@H](C(=O)O)N1 .
[A] inactive

[Q] I would be grateful if you could indicate the recorded call for Cc1ccc(Nc2c(F)cccc2Cl)c(CC(=O)O)c1 .
[A] inactive

[Q] I would be grateful if you could indicate the recorded call for N[C@@H](Cc1cc(I)c(O)c(I)c1)C(=O)O .
[A] active

[Q] I would be grateful if you could indicate the recorded call for O=C(O)CCC(=O)c1ccc(-c2ccccc2)cc1 .
[A] inactive

[Q] I would be grateful if you could indicate the recorded call for O=C1OC(=O)c2c(Br)c(Br)c(Br)c(Br)c21 .
[A] inactive

[Q] I would be grateful if you could indicate the recorded call for CC(C)(C)S .
[A] inactive

[Q] I would be grateful if you could indicate the recorded call for Cc1oc(=O)oc1COC(=O)[C@@H]1N2C(=O)[C@@H](NC(=O)[C@H](N)c3ccccc3)[C@H]2SC1(C)C .
[A] inactive

[Q] I would be grateful if you could indicate the recorded call for COc1cc(S(=O)(=O)Nc2ccccc2)c(OC)cc1N .
[A] inactive
